- ASSAY OVERVIEW: HPLC pharmacokinetics of secondary metabolites in serum/plasma, liver and urine of mice after oral Sechium H387 07 extract
- Parameters: species or system female CD-1 mice (Mus musculus L.)
- CONDITION DESCRIPTION: female, CD-1, mouse, plasma, po, 8 mg/kg, mice, plasma, oral extract 8 mg/kg; read-out: Tmax
METRIC NAME: Tmax (h)

>  <SMILES REPRESENTATION>
O=C(CCc1ccc(O)cc1)c1c(O)cc(O)cc1O

>  <RECORDED RESULT>
4.2

$$$$

====

- ASSAY OVERVIEW: in vivo
- Parameters: species or system female CD-1 mice (Mus musculus L.)
- CONDITION DESCRIPTION: female, CD-1, mouse, in vivo; mice, serum/plasma, oral extract 125 mg/kg; read-out: Tmax
METRIC NAME: Tmax

>  <COMPOUND>
CC(C)(O)/C=C/C(=O)[C@](C)(O)[C@H]1[C@H](O)C[C@@]2(C)[C@@H]3CC=C4[C@@H](C[C@H](O)C(=O)C4(C)C)[C@]3(C)C(=O)C[C@]12C [CuD, Cucurbitacin D]

>  <RECORDED RESULT>
24 h

$$$$
